// reported pEC50 for each item listed
SYSTEM_TESTED: T1, recombinant human Siglec-8 extracellular domain (ECD) (human, UniProt Q9NYZ4 17-363)
T1 construct: extracellular domain; also called Siglec-8 ECD; full Siglec-8 ECD
ASSAY_NAME: ELISA, coated Siglec-8 ECD
Scale for pEC50: -log10 of concentration given in mol/L; no unit attached.

A selection of reference data follows.
BINDER | REPORTED_PROPERTY | VALUE_REPORTED
HCKD (antibody, human IgG1, V domains shown, human IgG1/kappa) VH: EVQLVESGGGLVQPGGSLRLSCAVSGFSLTIYGAHWVRQAPGKGLEWVSVIWAGGSTNYNSALMSRFTISKDNSKNTVYLQMNSLRAEDTAVYYCARDGSSPYYYSMEYWGQGTTVTVSS VL: EIVLTQSPATLSLSPGERATLSCSATSSVSYMHWFQQKPGQAPRLWIYSTSNLASGIPARFSGSGSGTDFTLTISSLEPEDFAVYYCQQRSSYPFTFGPGTKLDIK | pEC50 | 10.31
HBcVK (antibody, human IgG1, V domains shown, human IgG1/kappa) VH: EVQLVESGGGLVQPGGSLRLSCAVSGFSLTIYGAHWVRQAPGKGLEWLGVIWAGGSTNYNSALMSRLSISKDNSKNTVYLQMNSLRAEDTAVYYCARDGSSPYYYSMEYWGQGTTVTVSS VL: QIILTQSPAIMSASPGEKVSITCSATSSVSYMHWFQQKPGTSPKLWIYSTSNLASGVPVRFSGSGSGTSYSLTISRMEAEDAATYYCQQRSSYPFTFGSGTKLEIK | pEC50 | 10.18

Q. Suppose we examine the binder HDKA (antibody, human IgG1, V domains shown, human IgG1/kappa) VH: EVQLVESGGGLVQPGGSLRLSCAASGFSLTIYGAHWVRQAPGKGLEWLSVIWAGGSTNYNSALMSRFTISKDNSKNTVYLQMNSLRAEDTAVYYCARDGSSPYYYSMEYWGQGTTVTVSS VL: EIVLTQSPATLSLSPGERATLSCSATSSVSYMHWFQQKPGQAPRLLIYSTSNLASGIPARFSGSGSGTDFTLTISSLEPEDFAVYYCQQRSSYPFTFGPGTKLDIK ; what pEC50 value has been reported?
A. 10.17

Q. Input HB2KA (antibody, human IgG1, V domains shown, human IgG1/kappa) VH: QVQLQESGPGLVKPSETLSLTCTVSGFSLTIYGAHWVRQPPGKGLEWLGVIWAGGSTNYNSALMSRLSISKDNSKNQVSLKLSSVTAADTAVYYCARDGSSPYYYSMEYWGQGTLVTVSS VL: EIVLTQSPATLSLSPGERATLSCSATSSVSYMHWFQQKPGQAPRLLIYSTSNLASGIPARFSGSGSGTDFTLTISSLEPEDFAVYYCQQRSSYPFTFGPGTKLDIK
A. 10.29

Q. Input HFKD (antibody, human IgG1, V domains shown, human IgG1/kappa) VH: EVQLVESGGGLVQPGGSLRLSCAASGFSLTIYGAHWVRQAPGKGLEWVSVIWAGGSTNYNSALMSRLTISKDNSKNTVYLQMNSLRAEDTAVYYCARDGSSPYYYSMEYWGQGTTVTVSS VL: EIVLTQSPATLSLSPGERATLSCSATSSVSYMHWFQQKPGQAPRLWIYSTSNLASGIPARFSGSGSGTDFTLTISSLEPEDFAVYYCQQRSSYPFTFGPGTKLDIK
A. 10.24
